Target: human cloned CHRM5 receptor (M5_CHO) (Homo sapiens, UniProt P08912)
Construct: expressed in transfected cells; host or cells: CHO (M5_CHO)
Sequence (P08912 1-532): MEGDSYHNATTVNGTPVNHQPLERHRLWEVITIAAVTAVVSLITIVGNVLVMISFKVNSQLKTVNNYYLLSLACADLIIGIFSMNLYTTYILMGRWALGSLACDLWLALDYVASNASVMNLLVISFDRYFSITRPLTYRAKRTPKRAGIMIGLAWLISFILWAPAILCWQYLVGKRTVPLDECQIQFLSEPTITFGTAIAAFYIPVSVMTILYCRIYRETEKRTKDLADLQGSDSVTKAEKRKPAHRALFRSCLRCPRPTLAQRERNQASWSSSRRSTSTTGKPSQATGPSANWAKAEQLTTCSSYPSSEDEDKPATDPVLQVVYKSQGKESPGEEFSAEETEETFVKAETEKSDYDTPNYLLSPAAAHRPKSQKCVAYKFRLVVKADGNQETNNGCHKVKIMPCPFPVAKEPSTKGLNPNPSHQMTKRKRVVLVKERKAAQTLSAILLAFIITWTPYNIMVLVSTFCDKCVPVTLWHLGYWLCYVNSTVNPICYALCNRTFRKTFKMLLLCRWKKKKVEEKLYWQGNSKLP
Assay: CHRM5 Ca++ Flux Assay (agonist mode, FDSS 7000EX)
Assay type: cell-based
Conditions: agonist mode; geometric mean if tested more than once; read-out: M5 FDSS EC50
readout label: EC50

A selection of reference data follows.
COc1ccccc1C1CCN([C@@H]2CCC3(C2)CN(c2nc(C)ns2)C3)CC1; > 25 µM
Cc1ccc(N2CC3(CC[C@@H](N4CCC(c5ccccc5O[C@@H]5CCOC5)CC4)C3)C2)cn1; 14.4 µM
COc1ccccc1C1CCN([C@@H]2CCC3(C2)CN(c2cc(Cl)nnc2Cl)C3)CC1; > 25 µM
COc1ccccc1C1CCN([C@@H]2CCC3(C2)CN(c2ccc(Cl)nn2)C3)CC1; 22.9 µM
FC1(COc2ccccc2C2CCN([C@@H]3CCC4(C3)CN(c3nnco3)C4)CC2)CCOCC1; > 25 µM
O=C(N1CC2(CC[C@@H](N3CCC(c4ccccc4OC4CC5(COC5)C4)CC3)C2)C1)C1(F)CC1 (single isomer, unassigned) [Example 11C]; > 25 µM
Fc1ccc(OC2CC3(COC3)C2)c(C2CCN([C@@H]3CCC4(C3)CN(c3nnco3)C4)CC2)c1; > 25 µM
COc1ccccc1C1CCN([C@@H]2CCC3(C2)CN(c2cccnn2)C3)CC1; > 25 µM
COc1ccccc1C1CCN([C@@H]2CCC3(C2)CN(c2ncns2)C3)CC1 (single isomer, unassigned) [Example 10R]; > 25 µM
CC(C)(O)CCOc1ccccc1C1CCN([C@@H]2CCC3(C2)CN(C(=O)C2COC2)C3)CC1; 2.01 µM

For the compound shown here, O=C(N1CC2(CC[C@H](N3CCC(c4ccccc4C4CCOCC4)CC3)C2)C1)C1(F)CC1 (single isomer, unassigned) , give the reported EC50. > 25 µM

For the compound shown here, "O=C(C1COC1)N1CC2(CC[C@@H](N3CCC(c4ccccc4OCCC(F)(F)F)CC3)C2)C1" , give the reported EC50. 0.974 µM

For the compound shown here, O=C(N1CC2(CC[C@@H](N3CCC(c4ccccc4OCC4CC4)CC3)C2)C1)C1(F)CC1 (single isomer, unassigned) [Example 7T] , give the reported EC50. > 25 µM

For the compound shown here, "c1ccc(C2CCN([C@@H]3CCC4(C3)CN(c3nnco3)C4)CC2)c(OC2CCOCC2)c1" , give the reported EC50. > 25 µM

For the compound shown here, "Fc1ccc(C2CCOCC2)c(C2CCN([C@@H]3CCC4(C3)CN(c3nnco3)C4)CC2)c1" , give the reported EC50. > 25 µM

For the compound shown here, "O=C(C1COC1)N1CC2(CC[C@@H](N3CCC(c4ccccc4OCCC4COC4)CC3)C2)C1" , give the reported EC50. > 25 µM

For the compound shown here, COc1ccccc1C1CCN([C@@H]2CCC3(C2)CN(c2ncns2)C3)CC1 (single isomer, unassigned) [Example 10Q] , give the reported EC50. > 25 µM

For the compound shown here, "COc1ccccc1C1CCN([C@@H]2CCC3(C2)CN(c2ccnnc2)C3)CC1" , give the reported EC50. > 25 µM

For the compound shown here, O=C(N1CC2(CC[C@@H](N3CCC(c4ccccc4OCc4ncccn4)CC3)C2)C1)C1(F)CC1 (single isomer, unassigned) , give the reported EC50. > 25 µM

For the compound shown here, COc1ccccc1C1CCN([C@H]2CCC3(C2)CN(c2ncco2)C3)CC1 (single isomer, unassigned) [Example 10I] , give the reported EC50. > 25 µM

* * *

Target: human cloned CHRM4 receptor (M4_CHO cells) (Homo sapiens, UniProt P08173)
Construct: expressed in transfected cells; host or cells: CHO-K1
Sequence (P08173 1-479): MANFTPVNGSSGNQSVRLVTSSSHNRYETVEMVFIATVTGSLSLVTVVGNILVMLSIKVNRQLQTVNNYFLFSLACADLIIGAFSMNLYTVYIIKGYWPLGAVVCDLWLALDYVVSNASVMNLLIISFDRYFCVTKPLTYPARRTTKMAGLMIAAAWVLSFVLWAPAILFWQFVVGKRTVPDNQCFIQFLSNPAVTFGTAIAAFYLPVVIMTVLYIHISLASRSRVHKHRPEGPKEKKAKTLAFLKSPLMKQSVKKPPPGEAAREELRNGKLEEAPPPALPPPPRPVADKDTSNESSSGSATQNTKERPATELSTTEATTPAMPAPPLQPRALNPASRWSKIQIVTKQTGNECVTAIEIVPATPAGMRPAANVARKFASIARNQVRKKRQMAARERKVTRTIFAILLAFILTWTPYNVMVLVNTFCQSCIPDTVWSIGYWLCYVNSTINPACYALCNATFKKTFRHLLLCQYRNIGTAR
Assay: CHRM4 Ca++ Flux Assay (agonist mode, FDSS 7000EX)
Type: cell-based
Conditions: geometric mean if tested more than once, citrate salt, read-out: M4 FDSS EC50
Listed compounds paired with reported pEC50
The read-out pEC50 is expressed as -log10 of concentration in moles per litre.

For the compound shown here, O=C(C1COC1)N1CC2(CC[C@H](N3CCC(c4ccccc4OC(F)F)CC3)C2)C1.O=C(O)CC(O)(CC(=O)O)C(=O)O (single isomer, unassigned) [Example 8F, citrate salt] , give the reported pEC50. 5.96

For the compound shown here, O=C(C1COC1)N1CC2(CC[C@H](N3CCC(c4ccccc4OC(F)F)CC3)C2)C1.O=C(O)CC(O)(CC(=O)O)C(=O)O (single isomer, unassigned) [Example 8E, citrate salt] , give the reported pEC50. 8.70

* * *

Molecular target: Cloned human M1 receptor (CHRM1) stably expressed in HEK293 cells (Homo sapiens)
Construct: expressed in transfected cells; host or cells: HEK293
Sequence (P11229 whole entry): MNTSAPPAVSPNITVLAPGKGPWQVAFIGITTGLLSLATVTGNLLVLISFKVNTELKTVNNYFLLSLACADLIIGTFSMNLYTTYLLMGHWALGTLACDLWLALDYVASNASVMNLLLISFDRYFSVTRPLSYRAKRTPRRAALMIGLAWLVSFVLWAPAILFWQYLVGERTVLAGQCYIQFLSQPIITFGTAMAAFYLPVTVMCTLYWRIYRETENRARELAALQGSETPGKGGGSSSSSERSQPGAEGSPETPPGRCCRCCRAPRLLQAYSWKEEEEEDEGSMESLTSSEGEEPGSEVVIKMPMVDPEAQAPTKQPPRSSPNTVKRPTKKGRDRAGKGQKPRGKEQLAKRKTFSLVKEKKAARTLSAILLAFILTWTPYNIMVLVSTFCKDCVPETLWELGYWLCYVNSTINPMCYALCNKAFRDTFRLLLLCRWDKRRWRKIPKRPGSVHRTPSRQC
Assay: CHRM1 Ca++ Flux Assay (agonist mode, FDSS 7000EX)
Assay type: cell-based
Conditions: HEK293, Percent Activity, read-out: M1 FDSS PA
readout label: Emax (%)

A selection of reference data follows.
O=C(C1COC1)N1CC2(CC[C@@H](N3CCC(c4ccccc4OCCOC(F)(F)F)CC3)C2)C1; 86
c1ccc(C2CCN([C@@H]3CCC4(C3)CN(c3nnco3)C4)CC2)c(OCC2CCOCC2)c1; 51
c1ccc(C2CCN([C@@H]3CCC4(C3)CN(c3nncs3)C4)CC2)c(OCC2COC2)c1; 80
c1ccc(C2CCN([C@@H]3CCC4(C3)CN(c3nncs3)C4)CC2)c(OC[C@H]2COCCO2)c1; 83
FC1(COc2ccccc2C2CCN([C@@H]3CCC4(C3)CN(c3nncs3)C4)CC2)COC1; 88
Fc1cccc(C2CCN([C@@H]3CCC4(C3)CN(c3nncs3)C4)CC2)c1OC1COC1; 87

A. COCCOc1ccccc1C1CCN([C@@H]2CCC3(C2)CN(c2nnco2)C3)CC1
B. CC(C)Oc1cc(F)ccc1C1CCN([C@@H]2CCC3(C2)CN(C(=O)C2COC2)C3)CC1
I'm curious whether A or B has the smaller Emax number. Which is it? Pick one; state its label. B

* * *

Molecular target: human cloned CHRM5 receptor (M5_CHO) (Homo sapiens, UniProt P08912)
Construct: expressed in transfected cells; host or cells: CHO (M5_CHO)
Assay: CHRM5 Ca++ Flux Assay (agonist mode, FDSS 7000EX)
Type: cell-based
Conditions: agonist mode; geometric mean if tested more than once; read-out: M5 FDSS EC50
pEC50: −log10 of the molar value.
Listed molecules paired with reported pEC50

A selection of reference data follows.
c1ccc(C2CCN([C@@H]3CCC4(C3)CN(c3cncnc3)C4)CC2)c(O[C@@H]2CCOC2)c1; < 4.60
COc1ccccc1C1CCN([C@@H]2CCC3(C2)CN(c2cncc(F)c2)C3)CC1; 4.84
O=C(N1CC2(CC[C@@H](N3CCC(c4cc(F)ccc4C4(O)CCOCC4)CC3)C2)C1)C1(F)CC1 (single isomer, unassigned) [Example 9I]; < 4.60
COC(C)(C)CCOc1ccccc1C1CCN([C@@H]2CCC3(C2)CN(C(=O)C2(F)CC2)C3)CC1 (single isomer, unassigned); < 4.60
FC(F)(F)Oc1ccccc1C1CCN([C@@H]2CCC3(C2)CN(c2nncs2)C3)CC1 (single isomer, unassigned) [Example 10M]; < 4.60

For the molecule shown here, "O=C(C1COC1)N1CC2(CC[C@@H](N3CCC(c4ccc(F)cc4OC(F)F)CC3)C2)C1" , give the reported pEC50. < 4.60

For the molecule shown here, "c1ccc(C2CCN([C@@H]3CCC4(C3)CN(c3nnco3)C4)CC2)c(-c2ncco2)c1" , give the reported pEC50. < 4.60

For the molecule shown here, "CC1(COc2ccccc2C2CCN([C@@H]3CCC4(C3)CN(c3nnco3)C4)CC2)CCOCC1" , give the reported pEC50. < 4.60

For the molecule shown here, "O=C(C1COC1)N1CC2(CC[C@@H](N3CCC(c4ccccc4OCC(F)F)CC3)C2)C1" , give the reported pEC50. 6.03

For the molecule shown here, Fc1ccc(C2CCOCC2)c(C2CCN([C@@H]3CCC4(C3)CN(c3cncnc3)C4)CC2)c1 (single isomer, unassigned) [Example 10C] , give the reported pEC50. < 4.60

For the molecule shown here, "CC(C)(O)COc1ccccc1C1CCN([C@@H]2CCC3(C2)CN(C(=O)C2COC2)C3)CC1" , give the reported pEC50. < 4.60

For the molecule shown here, "COc1ccccc1C1CCN([C@@H]2CCC3(C2)CN(c2nncs2)C3)CC1" , give the reported pEC50. < 4.60

For the molecule shown here, O=C(N1CC2(CC[C@@H](N3CCC(c4cc(F)ccc4OC4CCOCC4)CC3)C2)C1)C1(F)CC1 (single isomer, unassigned) [Example 9C] , give the reported pEC50. < 4.60

For the molecule shown here, "c1ccc(C2CCN([C@@H]3CCC4(C3)CN(c3nnco3)C4)CC2)c(C2CCOCC2)c1" , give the reported pEC50. < 4.60
